For each of the compounds below, state its log10 of IC50.
target: Indoleamine 2,3-dioxygenase 1 (Homo sapiens, UniProt P14902); test: Inhibition of indoleamine-2,3-dioxygenase in human A431 cells assessed as inhibition of IFN-gamma-stimulated kynurenine production; format: cell-based, A-431
Sequence (P14902 whole entry): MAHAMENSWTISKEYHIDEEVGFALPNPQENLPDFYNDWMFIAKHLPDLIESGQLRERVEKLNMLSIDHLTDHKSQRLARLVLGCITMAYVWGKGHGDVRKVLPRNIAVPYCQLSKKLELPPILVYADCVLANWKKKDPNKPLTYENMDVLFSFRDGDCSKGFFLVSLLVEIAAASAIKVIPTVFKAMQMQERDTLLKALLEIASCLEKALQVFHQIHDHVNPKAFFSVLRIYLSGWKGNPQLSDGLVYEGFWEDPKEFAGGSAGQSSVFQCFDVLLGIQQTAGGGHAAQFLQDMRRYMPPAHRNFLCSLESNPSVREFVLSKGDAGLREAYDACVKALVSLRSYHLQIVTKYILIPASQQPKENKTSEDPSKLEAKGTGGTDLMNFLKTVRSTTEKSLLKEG
The figures below represent log10 of IC50, where IC50 is stated in µM.

Prompt: # get_value(readout='log10 of IC50', item= Fc1ccc(CS)cc1 )
Completion: 0.28

Hey, quick one: what's log10 of IC50 for each of these?
1. N=C(N)SCc1ccccc1Cl
2. SCc1ccccc1Cl
3. N=C(N)SCc1ccc([N+](=O)[O-])cc1
4. N=C(N)SCc1ccc(Cl)cc1
5. SCc1ccc(Cl)c(Cl)c1
6. Cc1ccc(CSC(=N)N)cc1
7. COc1ccc(CSC(=N)N)cc1

Completion:
1. 0.68
2. 1.18
3. 0.34
4. -0.22
5. 0.04
6. 0.83
7. 1.00

----------
biological target: Indoleamine 2,3-dioxygenase 1 (Homo sapiens, UniProt P14902); test: Inhibition of indoleamine-2,3-dioxygenase in human A431 cells assessed as inhibition of IFN-gamma-stimulated kynurenine production; type: cell-based, A-431
For each of the compounds below, state its IC50.
One number for each entry, in µM.

Solved entries (count: 2):
Prompt: # get_value(readout='IC50', item= Cc1ccc(CS)cc1 )
Completion: 6.5

Prompt: Repeat with SCc1ccc(Cl)cc1
Completion: 1.1

Hey, quick one: what's IC50 for each of these?
1. SCc1ccc(Cl)cc1Cl
2. N=C(N)SCc1ccc(C(F)(F)F)cc1
3. N=C(N)SCc1ccc(Br)cc1

Completion:
[4.6, 1.2, 0.8]

Hey, quick one: what's IC50 for each of these?
1. COc1ccc(CS)cc1
2. N=C(N)SCc1cccc(Cl)c1
3. N=C(N)SCc1ccc(Cl)c(Cl)c1
4. CCc1ccc(CSC(=N)N)cc1
5. SCc1ccccc1 [BENZENEMETHANETHIOL]
6. N=C(N)SCc1ccc(Cl)cc1Cl
7. N=C(N)SCc1ccc(F)cc1
8. N#Cc1ccc(CSC(=N)N)cc1

Completion:
1. 9.4
2. 1.4
3. 7.3
4. 2.5
5. 13
6. 1.1
7. 2
8. 2.6

----------
target: Indoleamine 2,3-dioxygenase 1 (Homo sapiens, UniProt P14902); experiment: Inhibition of indoleamine-2,3-dioxygenase
pIC50: −log10 of the molar value.
Rule: pIC50 under 5 gives Not fulfilled, otherwise Fulfilled.

Worked set:
Prompt: Item Fc1ccc(CS)cc1 with pIC50 of 5 or above?
Completion: Fulfilled

Prompt: Repeat with SCc1ccc(Cl)cc1
Completion: Fulfilled

Prompt: Repeat with NCCc1ccc(Cl)cc1
Completion: Not fulfilled

Prompt: Repeat with CC(C)(C)c1ccc(CSC(=N)N)cc1
Completion: Not fulfilled

Prompt: Repeat with N=C(N)SCc1ccc(C(F)(F)F)cc1
Completion: Fulfilled

Others:
Prompt: Item O=S(O)c1ccc(Cl)cc1 with pIC50 of 5 or above?
Completion: Not fulfilled

Prompt: Repeat with COc1ccc(CS)cc1
Completion: Fulfilled

Prompt: Repeat with N=C(N)SCc1cccc(Cl)c1
Completion: Fulfilled

Prompt: Repeat with O=S(=O)(O)c1ccc(Cl)cc1
Completion: Not fulfilled

Prompt: Repeat with OCc1ccc(Cl)cc1
Completion: Not fulfilled

Prompt: Repeat with NC(=S)NCCc1ccc(Cl)cc1
Completion: Not fulfilled

Prompt: Repeat with NC(=S)Nc1ccc(Cl)cc1
Completion: Not fulfilled

Prompt: Repeat with N=C(N)SCCc1ccc(Cl)cc1
Completion: Not fulfilled

Prompt: Repeat with C/N=C(\NC)SCc1ccc(Cl)cc1
Completion: Not fulfilled

Prompt: Repeat with CS(=O)(=O)c1ccc(CSC(=N)N)cc1
Completion: Not fulfilled

Prompt: Repeat with N=C(N)SCc1ccc(Cl)cc1
Completion: Fulfilled

Prompt: Repeat with Sc1ccc(Cl)cc1
Completion: Fulfilled

Prompt: Repeat with N=C(N)SCc1ccc(Cl)c(Cl)c1
Completion: Not fulfilled

Prompt: Repeat with Cc1ccc(CS)cc1
Completion: Fulfilled

----------
biological target: Indoleamine 2,3-dioxygenase 1 (Homo sapiens); experiment: Inhibition of indoleamine-2,3-dioxygenase in human A431 cells assessed as inhibition of IFN-gamma-stimulated kynurenine production; format: cell-based, A-431
pIC50: −log10 of the molar value.
measured metric: pIC50

Solved entries (count: 5):
Prompt: # get_value(readout='pIC50', item= O=S(O)c1ccc(Cl)cc1 )
Completion: < 4.70

Prompt: Repeat with NC(=S)Nc1ccc(Cl)cc1
Completion: < 4.70

Prompt: Repeat with N=C(N)SCCc1ccccc1Cl
Completion: < 4.70

Prompt: Repeat with N=C(N)SCc1ccccc1
Completion: < 5.00

Prompt: Repeat with CS(=O)(=O)c1ccc(CSC(=N)N)cc1
Completion: < 5.00

Hey, quick one: what's pIC50 for each of these?
1. CC(C)(C)c1ccc(CSC(=N)N)cc1
2. N=C(N)SCCc1cccc(Cl)c1
3. NCc1ccc(Cl)cc1
4. N=C(N)SCc1ccc(C(=O)c2ccccc2)cc1
5. CC(C)c1ccc(CSC(=N)N)cc1
6. NC(=S)NCCc1ccc(Cl)cc1

Completion:
["< 4.70", "< 4.70", "< 4.70", "< 4.70", "< 4.70", "< 4.70"]

Hey, quick one: what's pIC50 for each of these?
1. N=C(N)SCc1ccc(C(=O)O)cc1
2. NC(=O)NCc1ccc(Cl)cc1

Completion:
["< 4.70", "< 4.70"]

----------
For each of the compounds below, state its IC50.
target: Indoleamine 2,3-dioxygenase 1 (Homo sapiens, UniProt P14902); assay: Inhibition of indoleamine-2,3-dioxygenase

Hey, quick one: what's IC50 for each of these?
1. N=C(N)SCc1ccccc1Cl
2. N=C(N)SCc1ccc(F)cc1
3. N=C(N)SCc1ccc([N+](=O)[O-])cc1
4. SCc1ccccc1
5. SCc1ccc(Cl)c(Cl)c1
6. NCc1ccc(Cl)cc1
7. N=C(N)SCc1ccc(C(=O)O)cc1
8. N#Cc1ccc(CSC(=N)N)cc1

Completion:
1. 10 µM
2. 13 µM
3. 11 µM
4. 1.7 µM
5. 0.1 µM
6. > 100 µM
7. > 100 µM
8. 19 µM

Hey, quick one: what's IC50 for each of these?
1. N=C(N)SCCc1cccc(Cl)c1
2. SCc1ccc(Cl)cc1Cl
3. CCc1ccc(CSC(=N)N)cc1

Completion:
> 100 µM
3.5 µM
16 µM

Hey, quick one: what's IC50 for each of these?
1. NC(=O)NCc1ccc(Cl)cc1
2. Cc1ccc(CSC(=N)N)cc1

Completion:
1. > 100 µM
2. 30 µM

----------
target: Indoleamine 2,3-dioxygenase 1 (Homo sapiens); assay: Inhibition of indoleamine-2,3-dioxygenase
For each of the compounds below, state its IC50.
Answers are plain numbers, in µM.

Solved entries (count: 4):
Prompt: # get_value(readout='IC50', item= COc1ccc(CSC(=N)N)cc1 )
Completion: 52

Prompt: Repeat with N=C(N)SCc1ccccc1
Completion: 61

Prompt: Repeat with SCc1ccccc1Cl
Completion: 1.2

Prompt: Repeat with N=C(N)SCc1ccc(Br)cc1
Completion: 1.3

Could you now consider this next compound?
Prompt: # get_value(readout='IC50', item= N=C(N)SCc1ccc(Cl)cc1Cl )
Completion: 0.4
